system: NKL (IL-2 2.5 ng/mL); assay: relative IC50 (inflection point of fitted viability curve, relative to fitted max inhibition); higher = less sensitive; details: 72 h
I would appreciate it if you labelled entries class 1 when relative IC50 is 30 nM or higher, otherwise class 0.

compound	label-class
C[C@H]1C[C@@H]2[C@H]([C@@H](O)C[C@@]3(C)[C@H]2CC[C@]3(O)C(=O)CO)[C@@]2(C)C=CC(=O)C=C12 [Methylprednisolone]	class 0

In: # check: relative IC50 of "O=C(Nc1ccc2[nH]nc(-c3ccncc3)c2c1)[C@@H]1CCN(CC(=O)N2CCN(c3ccc(-c4ncccn4)cc3)CC2)C1" is greater than or equal to 30 nM
Out: class 1

In: Next: COc1cccc2c1C(=O)c1c(O)c3c(c(O)c1C2=O)C[C@@](O)(C(C)=O)C[C@@H]3O[C@H]1C[C@H](N)[C@H](O)[C@H](C)O1 [Daunorubicin]
Out: class 0

In: Now try COc1cc2c(NC3CCN(C(C)C)CC3)nc(C3CCCCC3)nc2cc1OCCCN1CCCC1 [UNC0638] .
Out: class 1

In: Same question for CCOC(=O)CCNc1cc(N2CCc3ccccc3CC2)nc(-c2ccccn2)n1 [GSK-J4] please.
Out: class 1

In: Now the compound COc1cc(F)c(F)c(Nc2ccc(I)cc2F)c1NS(=O)(=O)C1(C[C@H](O)CO)CC1 [Refametinib]
Out: class 1

In: And what about the compound COc1ccc(C[C@H](NC(=O)[C@H](C)NC(=O)CN2CCOCC2)C(=O)N[C@@H](Cc2ccccc2)C(=O)C2(C)CO2)cc1 (stereo in doubt) [ONX-0914] ?
Out: class 0
